Molecular target: AURKB (human) (UniProt Q96GD4)
Sequence (Q96GD4 whole entry, looked up): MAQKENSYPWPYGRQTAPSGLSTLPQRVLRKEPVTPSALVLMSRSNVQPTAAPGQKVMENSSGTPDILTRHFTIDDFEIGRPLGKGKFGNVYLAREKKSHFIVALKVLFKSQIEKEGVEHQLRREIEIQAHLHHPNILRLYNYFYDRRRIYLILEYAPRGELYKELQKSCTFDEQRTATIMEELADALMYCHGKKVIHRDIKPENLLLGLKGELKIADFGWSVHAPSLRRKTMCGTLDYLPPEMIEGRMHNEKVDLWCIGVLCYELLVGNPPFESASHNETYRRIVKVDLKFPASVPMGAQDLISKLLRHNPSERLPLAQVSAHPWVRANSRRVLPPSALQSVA
Assay: radiometric filter-binding kinase assay, Kinase HotSpot
Conditions: compound 0.5 µM; ATP 10 µM
Parameter: residual activity. Scope: all listed entries.
experimental endpoint: residual activity (%)

>  <mol>
Nc1nccc(-c2c(-c3ccc(F)cc3)ncn2C2CCNCC2)n1

>  <units>
%

>  <readout value>
103

$$$$
>  <mol>
O=C(O)/C=C/c1cc(Br)c(Br)c(Br)c1Br

>  <units>
%

>  <readout value>
88.5

$$$$
>  <mol>
Cn1sc(=O)n(Cc2ccccc2)c1=O

>  <units>
%

>  <readout value>
102

$$$$
>  <mol>
COc1cc2ncc(-c3ccccc3)nc2cc1OC

>  <units>
%

>  <readout value>
74.4

$$$$
>  <mol>
O=C1Cc2c([nH]c3ccc(Br)cc23)-c2ccccc2N1

>  <units>
%

>  <readout value>
84.3

$$$$
>  <mol>
Oc1ccc(Nc2nc(-c3ccc(Cl)cc3)cs2)cc1

>  <units>
%

>  <readout value>
102

$$$$
